- Test system: U-251
- assay: NCI tumour cell line growth inhibition, 48 h
Active and inactive are the calls of the source. Cut-off read from the data, not from the text of the source: active = GI50 up to about 1.1 µM and inactive = higher.
measure.name: GI50

Here's what some known entries look like.
INSERT INTO assay_data (compound, measure_name, data_value) VALUES
  ('CC1=C2C(O)C(C(C)C(=O)NC(C)C)CCC2(C)C=CC1=O (stereo not drawn)', 'GI50', '> 100 µM (inactive)'),
  ('CCOC(=O)Nc1ccc2c(c1)N(C(=O)CCN(CC)CC)c1ccccc1S2 [ETHACIZINE]', 'GI50', '26.6 µM (inactive)'),
  ('CC1(C)N=C(N)N=C(N)N1c1cccc(OCCOc2ccc([N+](=O)[O-])cc2)c1', 'GI50', '7.33 µM (inactive)');

Value sought: GI50, system U-251, item COC(=O)C(C(=O)C(=O)Nc1nnc(S)[nH]1)c1csc(-n2nc(-c3ccccc3)cc2-c2ccccc2)n1 (stereo not drawn) . Result: > 100 µM (inactive)

// compound Nc1c(C(=O)O)nnc2cc(Cl)c(Cl)cc12 , assay U-251, GI50 value: > 100 µM (inactive)

Short answer on U-251 for COc1cc(OC)c(OC)cc1/C=C/c1ccccn1 , GI50: > 10 µM (inactive)

Let me check: O=c1[nH]c2cc3cccnc3c(Cl)c2nc1C(F)(F)F , system U-251, measured GI50 is 50.8 µM (inactive)

Measured on U-251, COC(=O)C(CCC1C=CN(S(=O)(=O)c2ccc(C)cc2)C1)/N=C/c1ccccc1 (stereo not drawn) has a documented GI50 of 43.5 µM (inactive)

GET /values?item= O=C(O)CCC(=O)Oc1ccc(O)c2c1CCCC2=O &system= U-251 returns GI50: > 100 µM (inactive)

Summary: NC(Cc1ccccc1)C(=O)OCN1C(=O)C2C3C=CC(C2C1=O)C1C(=O)N(COC(=O)C(N)Cc2ccccc2)C(=O)C31 (stereo not drawn) , U-251, GI50 = > 100 µM (inactive)

Known value: U-251 GI50 of the compound O=c1c(-c2c(-c3ccccc3)oc3ccc(Cl)cc3c2=O)c(-c2ccccc2)oc2ccc(Cl)cc12 equals > 100 µM (inactive)

# value of GI50, U-251, item Cc1ccc(S(=O)(=O)N2C[C@](O)(c3ccccc3)[C@H]2C)cc1 = > 100 µM (inactive)

Param item: COC(=O)[C@@H](COC(=O)/C=C/c1ccc(OC(C)=O)c(OC(C)=O)c1)NC(=O)/C=C/c1ccc(OC(C)=O)c(OC(C)=O)c1 ; param system: U-251; output GI50: 33.7 µM (inactive)

* * *

- System: HCT-116
- assay: NCI tumour cell line growth inhibition, 48 h
Active and inactive are the calls of the source. No stated cut-off is given here; in the data, active = GI50 up to about 1.1 µM and inactive = higher.
Permitted responses: YES for active, NO for inactive

INSERT INTO results (compound, label_value) VALUES
  ('CC(/C=C/C=C\C=C\C=C(/C)C(=O)NC(C)CO)=C\C(C)C(O)/C(C)=C/C(C)CCc1ccccc1 (centres undefined)', 'YES');

query: Outcome? CCOC(=O)/C=C(/C(=O)OCC)n1cnc2c(=O)[nH]c(NC(C)=O)nc21
result: NO

query: Called result for CC1CC(=O)Nc2ccc(/N=N/N(C)C)cc2N1C=O (centres undefined)
result: NO

query: What was the test verdict on COC(=O)c1cc(NC(=O)Cc2c[nH]c3ccccc23)cn1C ?
result: NO

query: Fill in: this test's call for COc1ccc2cc3[n+](cc2c1OC)CCc1cc(O)c(O)cc1-3 is ___
result: NO

query: Tell me the assay call for CCOc1ccc(NC(=O)c2c(N/N=C/c3ccc(OC)cc3)nc(=O)[nH]c2C)cc1 please.
result: NO

query: Test call, this compound: CCOC(=O)CCC1(C(=O)O[C@@H]2C[C@H](C)CC[C@H]2C(C)C)CCCCC1=O (some centres undefined)
result: NO

query: Dear colleague, could you share the recorded outcome for CC1=C2[C@@H](c3ccccc3)C3C=CC2(c2ccccc23)N(C(=O)Nc2cccc3ccccc23)C1=O (some centres undefined) when you have a moment?
result: NO

query: Call for entry O=CC(O)C(O)C(O)C(O)C(=O)NCCCCCCCCCCCCNC(=O)C(O)C(O)C(O)C(O)C=O (centres undefined) :
result: NO

FYI, the data here is from ChEMBL document CHEMBL1201862.
